Test: yeast display, Sf9 membrane polyspecificity reagent, FACS + sequencing; frameworks hold sequencing errors
OBSERVATION TYPE: polyreactivity (PSR sort gate)

* QVQLVESGGRLVQAGGSLRLSCAASGFTFRYYDMRWYRPAPGKVRELVAAISSGGSTDYADSVKGRFTISRDNAKNTVYLQMNSLKPEDTAVYYCAADWWVVYTYDYWGRGTQVTVSS | low polyreactivity
* QVQLVESGGGLVQAGGSLRLSCAASGRTFIGYAMGWYRHAPGKERELVATISVSGGSTYYADSVKGRFTISRDNAKNTVYLQMKSLKPEDTAVYYCDKAYLRYYDGPYDYWGQGTQVTVSS | low polyreactivity
* QVQLVESGGGLVQAGGSLRLSCAASGRIFVGNTMGWYRQAPGKERELVAAISWRGRTSYADSVKGRFTISRDNAKNTVYLQMNSLKPEDTAVYYCNAEHAGATRYYYIANWMDYWGQGTQVTVSS | low polyreactivity
* QVQLVESGGGLVEAGGSLRLSCAASGRTFRYYAMGWYRQAPGKVREFVAAISTSGGRTYYADSVKGRFTISRDNAKNTVYLQMNSLKPEDTAVYYCAAVSAPRFGMDYLGQGTQVTVSS | high polyreactivity
* QVQLVESGGGLVQAGGSLRLSCAASGSTLNYYAMGWYRQAPGKERELVAAITWSGGSTSYADSVKGRFTISRDNAKNTVYLPMNSLKRDDTAVYYCATDFPTVQLYETDWLSSDMGYWGQGTQVNVSS | low polyreactivity
* QVQLVESGGGLVQAGGSLRLSCAASGSTFDPYAMGWYRQAPGKERELVAAITWGGGSTYADSVKGRFTISRDNAKNTVYLQMNSLKPEDTAVYYCAAEYYLWLFEYYVEYDYWGQGTQVTVSS | high polyreactivity
* QVQLVESGGGIVQAGVSLRLISAASGRIFRINAMGWYRQAPGKERDLVADITSGGSTNYADSVKGRFTISRDNAKITVYLQMNSLKPEDTAVYFCAPGYVTYRTRLDYWGQGTQVTVSS | low polyreactivity
* QVQLVESGGGLVQAGGSLRLSCAASGRIFSPNAMGWYRQAPGKERELVAAISWRGRTYYADSVKGRFTISRDNAKNTVYLQMNSLKPEDTAVYYCNAPYKYVRGDYWGQGTQVTVSS | high polyreactivity
* QVQLVESGGGLVQAGGSLRLSCAASGFTFGNYAMGWYRQAQGKERELVDAISGSGGSTYYADSVKGRFTISRYNAKNTVYLQMNSLKPEDTAVYYCAARYWVTYWPDYYYWGQGTQVTVPS | high polyreactivity
* QVQLVESGGGLVQAGGSLRLSCAASGRTFYVNTMGWYRQAHGKEKDLVARITRGGSTYYADSVKGRFTISRDNAKNTVYLQMNSLKPEDTAVYYCATDHFPVYSTHVIYEFDYWGQGTQVTVSS | low polyreactivity
* QVQLVESGGGLVQAGGSLRLSCAASGSTFVDNAMGWYRQAPGKERELVAAITSSGGSTYYADSVKGRFTISRDNAQNTVYLQMNSLKPEDTAVYYCAADEWIVHDGYYSSYYYWGQGTQVTVSS | low polyreactivity

---

Test: yeast display, Sf9 membrane polyspecificity reagent, FACS + sequencing; frameworks hold sequencing errors
OBSERVATION TYPE: polyreactivity (PSR sort gate)

* QVQLVESGGGLVQAGGSLRLSCAASGSIFFGNVMGWYRQAPGKERELVAVISWSGGTTYYADSVKGRFTISRDNAKNTVYLQMNSLKAEYTAVYYCNARYLRRGDYWGQGTQVTVSS | low polyreactivity
* QVQLVESGGGLVQAGGSLRLSCAASGRTFRYYAMGWYRQAPGKVRELVAAISWNGANTYYADSVKGRFTISRDNAKNTVYLQMNSLKPEDTAVYYCAATYYRWKGYDYWGQGTQVTVSS | high polyreactivity
* QVQLVDSGGGLVQAGGSLRLICAASGRIFYTNAMGWYRQAPGKERELVAAIDYSDSTTYYADSVKRRYTISRDNAKNTVYLQMNSLKPEDTAVYYCAAESYLYTVTFEYWGQGTQVTVSS | high polyreactivity
* QVQLVESGGGLVQAGGSLRLSCAASGIIFGYYAMGWYRQAPGKERELVATINWDGGSTYYADSVKGRFTISRDNAKNTVYLQMNSLKPEDTAVYYCAAAKPVQYRIAQAHVGYWGQGTQVTVSS | low polyreactivity
* QVLLVESGGGLVQAGGSLRLSCAASGLTFRYYAMGWYRQAPGKERELVAAITSGGSTYYADSVKGRFTISRDNAKNTVYLQMNSLKPEDTAVYYCNKLLGRTVRHDYWGQGTQVTVSS | high polyreactivity
* QVQLVESGGGLVQAGGRLRLSCDASGSTFVKYAMGWYRQAPGKERELVARISSSGGSTYYADSVKGRFTISRDNAKNTVFLQMNSLKPEDTAVYYCAAPSLIAKYDYWGQGTHVTVSS | high polyreactivity
* QVQLVESGGVLVQAGGSLRLRCAASGRIFNRNAMGWYRQAPGKERELVAAITSCGSTNYADSVKGRFTISRDNAKNTVYLQMNSLKPEDTAVYYCNVYYHFFRLKTTYLRYYYWGQGTQVTVSS | high polyreactivity
* QVQLVESGGGLVQAGGSLRLSCAASGYIYIVYSMGWYRQAPVKERELVAAISSGGITDYADSVKGRFTISRDNAKNTVYLQMNSLKPEDTAVYYWGQGTQVTVSA | low polyreactivity
* QVQLVESGGGLVQAGGSLRLSCAASGSIFTVNAMGWYRQAPGKERELVAAISSGGSTHYADSVKGRFTISRDNAKNTVYLQMNSLKPEDTAVYYCAAEVSYYLNEFDYWGQGTQVTVSS | low polyreactivity
* QVQLVESGGGLVQAGGSLRLSCAASGSTFQPNAMGWYRQAPGKERELVAISSGDDTYYADSVKGRFTISRDKAKNTVYFQMNSLIPEDSAVYYCAAEYSFIYYWGQGTQVTVSS | low polyreactivity
* QVQLVESGGGLVQAGGSLRLSCAASGSTFVYYAMGWYRQAPGKERELVAVISDDGGTYYADSVKGRFTISRDNAKNTVYLQMNSLKPEDTAVYYCAADPYWFFPHYDSWGQGTQVTVSS | low polyreactivity
* QVQLVESGGGLVQAGGSLRLSCAASGTTFGRNAMGWYRQAPGKERELVAAINSGGGTYYADSVKGRFTISRDNAKNTVYFQMNSLKPEDTAVYYCAAARRYGNYDYWGQGTQVTVSS | low polyreactivity
* QVQLVDSGGGLVQAGGSLRLSCAASGSILGGNAMGWYRQAPGKERELVAAITFSGGGTYYADSVKGRFTISRDHAKNTVYLQMNSLKPEDTAVYYCAADKDGYTYEFDYWGQGTQVTVSS | low polyreactivity
* QVQLVESGGGLVQAGGSLRLSCAASGSTFYYNAMGWYRQAPGQERELVAAITSGGGTNYADSVKGRFTISRDNAKNTVYLQLNSLKPEDTAVYYCAADIYPLAIGAFRDDYWGQRTQVTVSS | low polyreactivity
* QVQLVESGGGLVQAGGSLRLSCAASGRILEGYAMGWYRQAPGKERELVAAISFSTTTTYYADSVKGRFTISRDNAKNTVYLQMNSLKPEDTAVYYCAADSQQSDYDYWGQGTQVTVSS | high polyreactivity
* QDHLVESGGGLVQAGGSLRLSCAASGSTFGKNTMGWYRQAPGKERELVAAISRGVSTYYADSVKGSFTISRDNAKNTVYLQMNSLKPEDTAVYYCAAQEAYRWYGYYYWGQGTQVTVSS | high polyreactivity
* QVQLVESGGGLVQAGGSLRLSCAASGITFDYYDMGWYRQAPGKERELVATITSDGSTTYADSVKGRFTISRDNAKNTVYLQMNSLKPEDTAVYYCAAALHIYSYFYITYDYWGQGTQVTVSS | high polyreactivity
* QVQLVESGGGLVQAGGSLRLSCAASGRIFRWYAMGWYRQAPGKERELVAAISSSGGSTYYADSVKGRFTISRDNAKINVYLQMKSLKPEDTAVYYCNAEAVAYWSVPYNYWGQGTQVTVSS | high polyreactivity
* QVQLVESWGGLVQAGGSLRLSCAASGRIFKLYAMGWYRQAPGKERELVAGINWSGGTTYYAESVKGRFTISRDNAKNTVYLQMNSLKPEDTAVYYCAARTRNGAGYYWGQGTQVTVSS | high polyreactivity
* QVQHVESGGGLVQAGGSLRLSCAASGRTFTHYAMGWYRQAPGKERELVAVITTGGSTYYADSVKGRFTISRDNAKNTVYLQMNSLKPEDTAVYYCAATALSGLGYWGQGTQVTVSS | low polyreactivity
* QVQLVESGGGLVQAGGSLRLSCAASGSTIYDYTMGWYRQAPGKERELVAAISSDGSTYYADSVKGRFTISRDNAKITVYLKMNSLKPEDTAVYYCNADAGFLSLRGYDYWGQGTQVTVSS | low polyreactivity

---

Assay: yeast display, Sf9 membrane polyspecificity reagent, FACS + sequencing; frameworks hold sequencing errors
OBSERVATION TYPE: polyreactivity (PSR sort gate)

* QVQLVESGGGLVQAGGSLRLICAASGIIFNHNAMGWYRQAPGKERELVAAITLSGGTTYYADSVKGRFTISRDNAKNTVYVQMNSLKPEDTALYYCATRSYILGWRYDYWGQGTQVTVSS | high polyreactivity
* QVQLVESVGGLVQAGGSLRLSCAASGSILVSYAMGWSRQAPGKERELGPAITQGGGSTYYADCVKGRFTFSRDNAKNTVYLQMNSLKPEDTAVYYCSVDGLSDDRYSAGGDYWGQGTQVTVSS | low polyreactivity
* QVQLVESGGGLVQAGGSLRLSCAASGIIFRYYAMGWYRQAPGKERELVAAITWSGGTYYADSVKGRFTISRDNAKKTVYLQMNSLKPEETAVYYCAAVYYGYRDRTDYGYWGQGTQVTVSS | high polyreactivity
* QVQLVESGGGLVQAGGSLRLSCAASGITFIYYAMGWYRQAPGKEREFVAAITFRDGDTYYADSVKGRFTISRDNAKNTVYLQMNSLKPEDTAVYYCADTYWVYYFYPGYDYWGQGTQVTVSS | low polyreactivity
* QVQLVESGGGLVQAGGSLRLSCAASGSTFIGYDMGWFRQAPGTERELVAAISYSDGTYYADSVKGRFTISRDNAKNTVYLQMNSLKPEDTAVYYCAADSLYYRYDYWGQGTQVTVSS | low polyreactivity
* QVQLQESGGGLVQAGGSLRLSCAASGSIFDYVSMGWYRQAPGEERELVVTITLGSNTYYADSVKGRFTISSDIAKNTVYLQMNSLNPEDTAVYYCAASALWGYVYPYWGLGTQVTVSS | high polyreactivity
* QVQLVESGGGLVQAGGSLRLSCASSGSTFKYYAMGWYRQSPGKERELVAAISGTGGSTYYADSVKGRFTISRDNAKNTVYLQMNCLKPEDTAVYYCNTYPYIRYDYWGQGTQVTVSS | high polyreactivity
* QVQLVESGGGLVQAGGSLRLSCAASGSTLYRYTMGWYRQAPGKERELVAAISSGGNTYYADSVKGRFTISRDNAKNTVYLQMNSLKPEDTAVYYCAAEDSVYIPYYDAFDYWGQGTQVTVSS | low polyreactivity
* QVQLVESGGGLVQAGGSLRLSCAPSGYIFPFNALGGYRQAPGKERELVAAINNGGRTYYADSVKGRFTISRDNAKNTVFLQMHSLKPEDTAVDSCAAGSKSDMDWGQGTQVTVSS | low polyreactivity
* QVQLVESGGGLVQAGGSLRLSCAASGLTFAANAMGWYRQAPGKERELVAAITSSGGSTYYADSVKGRFTISRDNAKNTVYLQMNSLKPEDTAVYYCAARASRPRFGYWGQGTLVTVSS | high polyreactivity
* QVQLVESGGGLVQAGGSLRLSCAASGSIFKYNTMGWYRQAPGKERELVAAISSGGRTYYADSVKGRFTISRDNAKNSVYLQMNSLKPEDTAVYYCAARWSFFKTTHRNNYWGQGTQVTVSS | high polyreactivity
* QDQLVESGGGLDQAGGSLRLSCAASGRIFARYAMGWYRLAPGKERELVAALSRGGSTKYADSVKGRFTISRDNAKNTVYLQLHSLQQEDTAVYYCARQLWGSQYGAYYAGDYWGQVTQVTVSS | low polyreactivity
* QVQLVESGGGLVQAGGSLRLSCAASGFIFGYYAMGWYRQAPGKERELVAAISWSGVSTYYADSVKARFTISRDNAKNTVSLQMNSLKREDTAVYYCAFGYVLTGVFQARFDYWGQGTQVTVSS | high polyreactivity
* QVQLVESGGGLVQAGGSLRLSCAASGSIFYWYAMGWYRQAPGKERELVAAIDISDDTYYADSVKGRFTISRDNAKNTVYLQMNSLKPEDTAFYYCAARNTRWFYEYDWGQGTQVTVSS | high polyreactivity
* QVQLVESGGGLVQAGGSLRLSCAASGSIFAVYTMGWYRQAPGKERELVAAINWSGARTYYADSVKGRFTISRDNEKNTVYLQMNSLKPEDSAVYYCAAESRLGVAYIYWGQGTQVTVSS | low polyreactivity
* QVQLVESGGGLVQAGGSLRLSCAASGIIFDTYAMGWYRQAPGKERELVAAISRSGDTTYYADSVKGRFTISRDNAKNTVYLQMNSLKPEDTAVYYCYARQSRWDKYDYWGQGTQVTVSS | high polyreactivity
* QVQLVESGGGLVQAGGSLRLSCAASGRILAIYAKGWYRQAPGKERELVAGITYSAGSTYYADSVKGRFTISRDNAKNTVYLQMNSLKPEDTAVYYCAALEYNSHRYGYDYWGQGTQVTVSS | low polyreactivity
* QVQLVESGGGLVQAGGSLRLSCAASGSTFGPNTMGWYRQAPGKERELVAAINLRGGRTYYADSVKGRFTISRDNAKNTVYLQMNSLKPEDTAVYYCAARFKTTGYDYWGQGTQVTVSS | high polyreactivity
* QVQLVESGGGLVQAGGSLRLSCAASGSTFTHYVMGWYRQEPGKQREIVAAISDSGSTYYADSVKGRFTISRDNAKNTVYLQMNSLNPEDTAVYYCNADDVDFYYGYGYLYYDYWGQGTQVTVSS | low polyreactivity
* QVQLVESGGGLVQAGGSLRLSCAASGFIFRFYAMGWYRQAPGKEREVVAVISRSGGSTYYADSVKGRFTISRDHAKNTVYLQMNSLKPEDTAVYYCAATFYWDSVRRGDYDYWGQGTQVTGSS | high polyreactivity
* QVQLVESGGGLVQAGGSLRLSCAASGRIFRYYAMGWYRQAPGKERELVAAIRWTAGSTYYADSVKGRFTISRDIAKNTVYLQMNSLKPEDTAVYYCATDVWKYGRYEYWGQGTQVTVSS | low polyreactivity
